biological target: galectin-3 (Homo sapiens)
Sequence (P17931 whole entry): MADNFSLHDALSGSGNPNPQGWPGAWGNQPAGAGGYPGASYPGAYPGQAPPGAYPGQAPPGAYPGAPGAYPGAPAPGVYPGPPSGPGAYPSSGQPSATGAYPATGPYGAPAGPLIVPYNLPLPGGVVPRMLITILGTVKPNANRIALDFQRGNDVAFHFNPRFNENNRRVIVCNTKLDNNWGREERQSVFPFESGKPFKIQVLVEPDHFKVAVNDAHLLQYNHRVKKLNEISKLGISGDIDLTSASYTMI
Reported IC50 is given for each of the following compounds.
QUANTITY_NAME: IC50 (nM)

| COMPOUND | NUMBER |
| --- | --- |
| CNC(=O)[C@@H](OCc1ccc(OC)cc1)[C@@H]1OC(CO)[C@H](O)C(n2cc(-c3cc(F)c(F)c(F)c3)nn2)C1O (stereo partly drawn) [Compound 32] | 2810 |
| CNC(=O)[C@@H](OCc1ccc2ccccc2c1)[C@@H]1OC(CO)[C@H](O)C(n2cc(-c3cc(F)c(F)c(F)c3)nn2)C1O (stereo partly drawn) [Compound 16] | 530 |
| COC1[C@H]([C@H](OCc2ccccc2)C(=O)N(C)C)OC(CO)[C@H](O)[C@@H]1n1cc(-c2cc(F)c(F)c(F)c2)nn1 (stereo partly drawn) [Compound 41] | 9580 |
